Documented switch fluorescence ratio across a set of sequences
Tested on: ATP;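 note: ATP exposure 15 min at 22 °C before imaging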
procedureText: switch fluorescence ratio, 500 uM ATP over buffer (Cy3 cluster intensity, sum of 5 cycles each) (fold (ratio)); higher = stronger signal-on switching upon ATP binding; sequences stand for … in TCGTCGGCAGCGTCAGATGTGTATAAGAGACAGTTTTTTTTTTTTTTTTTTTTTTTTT…TC
condition: aptamer strand: ATP DNA aptamer (quencher-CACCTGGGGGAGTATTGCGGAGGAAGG + anchor), 100 nM annealed; ATP concentration: 500 uM
Respond numerically, and do not add a unit to the figure.

GGGGGGGTTT | 1.01

Switching to the query record.
For the sequence shown here, GGTTATGCTG , give the reported switch fluorescence ratio. 1.03

###

Reported values of switch fluorescence ratio for individual entries
System: ATP;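 note: ATP exposure 15 min at 22 °C before imaging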
procedureText: switch fluorescence ratio, 500 uM ATP over buffer (Cy3 cluster intensity, sum of 5 cycles each) (fold (ratio)); higher = stronger signal-on switching upon ATP binding; sequences stand for … in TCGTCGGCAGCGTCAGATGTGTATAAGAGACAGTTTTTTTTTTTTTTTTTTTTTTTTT…TC
condition: aptamer strand: ATP DNA aptamer (quencher-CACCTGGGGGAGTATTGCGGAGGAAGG + anchor), 100 nM annealed; ATP concentration: 500 uM
Note: the reply should be a number with no unit written.

AAGGGCGCCC | 1.14

Record lookup: for ATP, what switch fluorescence ratio belongs to TGCTGGATGA ? 1

Query the reported switch fluorescence ratio for ATP; item: CAGACCAGCT 1.02

Lab note: need switch fluorescence ratio with ATP for entry TGTAGGGATT , please look it up. 1.01

Give recorded switch fluorescence ratio with ATP for the following sequence: AACGTACTGG 1.52

// fetch ATP switch fluorescence ratio for CCATTGACGG 1.04

Param readout= switch fluorescence ratio; system= ATP; entry= AGAGTACGGC ; returns value. 1.09

###

Below, each entry is listed with its recorded switch fluorescence ratio.
Tested on: ATP;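 note: ATP exposure 15 min at 22 °C before imaging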
procedureText: switch fluorescence ratio, 500 uM ATP over buffer (Cy3 cluster intensity, sum of 5 cycles each) (fold (ratio)); higher = stronger signal-on switching upon ATP binding; sequences stand for … in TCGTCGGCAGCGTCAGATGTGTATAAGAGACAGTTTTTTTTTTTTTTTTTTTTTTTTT…TC
condition: aptamer strand: ATP DNA aptamer (quencher-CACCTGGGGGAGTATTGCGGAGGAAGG + anchor), 100 nM annealed; ATP concentration: 500 uM

TAATTTCCGG | 0.994
GGGAGAGCA | 0.982

Now consider a different sequence.
Fill blank: measured switch fluorescence ratio of the sequence CAAGGCTACG is ____. 1.06

###

Test system: ATP;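 note: ATP exposure 15 min at 22 °C before imaging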
procedureText: switch fluorescence ratio, 500 uM ATP over buffer (Cy3 cluster intensity, sum of 5 cycles each) (fold (ratio)); higher = stronger signal-on switching upon ATP binding; sequences stand for … in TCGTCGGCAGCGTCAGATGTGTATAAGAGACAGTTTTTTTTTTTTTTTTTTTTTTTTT…TC
condition: aptamer strand: ATP DNA aptamer (quencher-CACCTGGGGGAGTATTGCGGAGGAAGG + anchor), 100 nM annealed; ATP concentration: 500 uM
endpointLabel: switch fluorescence ratio
Lab note: write the figure by itself, no unit.

GCACCTATAT | 1.04
CCTTTAGATG | 1.03

Field request: switch fluorescence ratio | item: GGGATTATGG 1.01

Data request, read-out switch fluorescence ratio, for AGGTGTGTTG 0.984

What switch fluorescence ratio value was documented for this sequence, TCATGGACTG ? 1.06

Look up switch fluorescence ratio for this sequence: TTTGGTTGGA 0.992

State the recorded switch fluorescence ratio for this entry: ATAGAAGCGG 0.968

What value of measured switch fluorescence ratio is listed for CTTGATGTAA ? 1

Look up switch fluorescence ratio: GGTTAAGCCT 1.05

I'd like to know its switch fluorescence ratio. The sequence in question is TTGTAGGGAG 1

This collection of values is drawn from the supplement of paper PMC10126150.
